Assay Target: T1, recombinant dimeric c-Met (R&D systems, 358-MT/CF) (human, UniProt P08581 25-932)
T1 construct: Bought product; also called Fc-Met; recombinant c-Met
T1 sequence (P08581 25-932 limits assumed): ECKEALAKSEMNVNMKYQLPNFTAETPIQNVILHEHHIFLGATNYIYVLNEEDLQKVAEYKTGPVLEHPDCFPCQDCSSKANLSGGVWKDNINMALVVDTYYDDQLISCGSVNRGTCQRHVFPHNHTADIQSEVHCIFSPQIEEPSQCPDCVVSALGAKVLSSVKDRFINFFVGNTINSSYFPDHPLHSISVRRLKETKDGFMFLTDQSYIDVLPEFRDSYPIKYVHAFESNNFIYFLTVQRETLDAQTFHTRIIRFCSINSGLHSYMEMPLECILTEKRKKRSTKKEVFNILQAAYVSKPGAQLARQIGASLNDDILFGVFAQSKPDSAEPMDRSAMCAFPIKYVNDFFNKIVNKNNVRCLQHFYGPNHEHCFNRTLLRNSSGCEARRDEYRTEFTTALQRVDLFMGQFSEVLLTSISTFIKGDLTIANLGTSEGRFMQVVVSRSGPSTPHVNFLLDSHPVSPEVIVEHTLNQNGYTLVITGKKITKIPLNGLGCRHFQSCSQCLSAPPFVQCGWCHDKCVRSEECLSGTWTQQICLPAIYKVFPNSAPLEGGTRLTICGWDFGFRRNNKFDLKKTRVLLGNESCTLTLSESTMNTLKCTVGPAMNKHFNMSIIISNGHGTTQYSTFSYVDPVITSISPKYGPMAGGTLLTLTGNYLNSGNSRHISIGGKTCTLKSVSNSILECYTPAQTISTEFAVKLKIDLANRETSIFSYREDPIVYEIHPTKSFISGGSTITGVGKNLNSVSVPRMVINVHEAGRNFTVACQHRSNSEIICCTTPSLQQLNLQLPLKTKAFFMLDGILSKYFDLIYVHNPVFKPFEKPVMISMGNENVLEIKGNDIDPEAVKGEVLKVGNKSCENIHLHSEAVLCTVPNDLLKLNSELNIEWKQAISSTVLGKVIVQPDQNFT
Experiment Description: competition ELISA: recombinant dimeric c-Met (100 ng/ml) captured by coated mouse anti-His antibody; antibody dilutions 30 min, then 25 ng/ml N-terminally biotinylated HGF (the competitor); strep-HRP, TMB, 620 nm; percent competition against the controls
Field: IC50 (read off the curve). Provide a value for each of the binders that follow.

Lookup: For the binder 36C4 mAb (antibody, V domains shown, also called SIMPLE antibody 36C4) VH: QVQLVESGPGLVKPSQTLSLTCAVSGGSITTNYYYWSWIRQSPGKGLEWMGVIAYDGSTDYSPSLKSRTSISRDTSKNQFSLQLSSVTPEDTAVYYCARDVRVIATGWATANALDAWGQGTLVTVSS VL: QSVLTQPPSVSGSPGKTVTISCAGTSSDVGYGNYVSWYQQLPGTAPKLLIFAVSYRASGIPDRFSGSKSGNTAFLTISGLQSEDEADYYCASYRSSNNAAVFGGGTHLTVL , what IC50 (read off the curve) is on record?
Found: ~0.2 nM

Lookup: For the binder 40B8 mAb (antibody, V domains shown) VH: EVQLVQPGAELRNPGASVKVSCKASGYTFTNYVIDWVRQAPGQGLEWMGRIDPENGGTRYAQKFQGRVTFTADTSTSTAYVELSNLRSEDTAVYYCARLEDYELAYDYWGQGTQVTVSS VL: DIVMTQTPSSVTASAGEKVTINCKSSQSVLLSSNQKNYLAWYQQRLGQSPRLLIYWASTRESGVPDRFSGSGSTTDFTLTISSFQPEDAAVYYCQQGVSFPLTFGQGTKVELK , what IC50 (read off the curve) is on record?
Found: ~0.08 nM
